measurement_description: PET hydrolysis, aromatic products released after 48 h (umol product/mg enzyme); higher = more PET depolymerization activity
protocol_conditions: substrate: cryPow; 60 °C; pH 6.5
parameter_measured: PET hydrolysis

Data request: Item ADNPYQRGPDPTPASVSANRGTFATAQISVPAGNGFGGGVIYHPTDTSQGTFGAIAVVPGYTATWAAEGAWMGHWLASFGFVVIGIDTNSRNDWDTARGTQLLAALDYLTQRSPVRDRVDANRTAVMGHSMGGGGAMHAALQRPSLKAAIGLAPFSPSQNLTTTRVPTMLLAGQSDTTTTPASILNLYNGIPAATEKAYLELTGAGHGFPTSNNPTMMRNVIPWLKIFVDSDTRYTQFLCSLSNWDGIRAYQSTCPLVPSPVPTTTSTTSTTTTISTTTTTPAPGDACSATYRTTNSWPGGYQAEVTVTAGNTAVNGWNVQWTLGSGQTVTQVWNGTLNVSGSTASVRNASYNGSLQANTSTTFGFIGGGTPPTSSLSCTSP [ESM035] has what recorded PET hydrolysis?
Data returned: < 3

Data request: Thanks! And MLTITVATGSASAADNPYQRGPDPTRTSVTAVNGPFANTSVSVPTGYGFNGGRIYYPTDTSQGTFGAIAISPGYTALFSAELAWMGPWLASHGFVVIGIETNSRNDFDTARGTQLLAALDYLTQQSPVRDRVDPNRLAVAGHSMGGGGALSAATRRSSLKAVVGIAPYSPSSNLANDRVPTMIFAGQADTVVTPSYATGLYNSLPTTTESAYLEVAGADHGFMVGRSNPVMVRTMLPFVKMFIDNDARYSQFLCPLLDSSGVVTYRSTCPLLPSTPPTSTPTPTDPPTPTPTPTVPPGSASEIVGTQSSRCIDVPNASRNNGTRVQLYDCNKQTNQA [ESM121] ?
Data returned: < 3

Data request: Okay, and ADNPYQRGPDPTQSSVSASRGTFATAQVGVPAGNGFGGGVIYHPTDTSQGTFGAVAIVPGYTATWAAEGAWMGHWLASFGFVVIGIDTNNRNDWDTARGTQLLAALDYLTQRSSVRDRVDPSRTAVMGHSMGGGGAMYAALQRPSLKTAVGLAPFSPSQNLTTTRVPTMLLSGQNDTTTTPASIVNLYNGIPSSVEKAYLELTGAGHGFPTSNNSTMMRNVIPWLKIFVDSDTRYTQFLCPLSDSNGIRTYQNTCPLVPSPVPTTTSTTSSTSTTTTSTTTTTTTSVPVGACSATYRTTNAWSGGYQGEVTVAAGDSAVNGWTVRWTLDSGQTISQVWNGTLSATGSAVSVRNASYNGSLRPGTSTTFGFIAGGAPSTPVLSCTSP [DP072] ?
Data returned: < 3

Data request: Record: ASPYERGPNPTTAILEASSGPYSVSSVSVSSLVTGFGGGRIYYPTTTADGTFGGIAISPGFTARWSSLEWLGPRIASHGFVVIGIETNSIYDQPTSRGQQLLAALDYLVNSSSARTRVDRNRLAVAGHSMGGGGTLYAANARPSLQAAVPIAPWNTDKTWGGVQVPTMIIGGESDSVAPVATHAIPFYTSIPASSEKAYLELNNASHFFPQTVNTTMAKSMVSWLKRYVDDDTRYDPWLCPAPSGLSISDYRDTCPA [DP084]
Data returned: < 3

Data request: Thanks! And ADNPYERGPNPTQASIAASRGTFATAEVSVGGGNGFAAAKIYYPTDTSQGTFGAIAIVPGYTATWAAEGAWMGPWLASFGFVVIGIDTLSRNDFDTARGTQLLAALDYLTQRSSVRSRVDASRLAVMGHSMGGGGAISAALRRPSLKAAVGLAPFSPSQGTSGMRVPSMLLAGQRDGTVTPSSVRNLYNAIPATTEKAYLELTGAGHGFPTSANSVMMRKVIPWLKIFVDQDTRYQQFLCPLVDWTGITSYQSSCPLIPGGSTGTTYNLVNSSGKCADVNAASQVNGAALLLWTCHTNPNQRWTETSAKELRVYDNPKCMDAGAAQQGTRVTINSCSGGGSQKWTVNANGTVTNDLSGRCLGAAGGATTDNTPLVVASCDGSPGQQWTKQS [TEP093] ?
Data returned: 7

Data request: Moving on to the next sequence: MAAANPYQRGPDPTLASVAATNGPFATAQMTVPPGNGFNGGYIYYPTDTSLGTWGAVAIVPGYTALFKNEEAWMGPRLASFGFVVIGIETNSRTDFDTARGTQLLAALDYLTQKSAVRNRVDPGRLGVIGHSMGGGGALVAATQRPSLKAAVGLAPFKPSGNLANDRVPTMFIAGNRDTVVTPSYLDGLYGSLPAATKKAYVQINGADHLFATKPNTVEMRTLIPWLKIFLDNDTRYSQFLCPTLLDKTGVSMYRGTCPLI [TEP109]
Data returned: 23

Data request: Same lookup for ADNPYERGPDPTESSIEASRGPFAVSQTTVSSLAVTGFGGGTIYYPTDTSQGTFGAVAISPGYTADQSSIAWIGPRLASQGFVVFTIDTITRYDQPASRGDQLLAALDYLTQRSSVRGRIDSSRLGVAGHSMGGGGTLEAAEERPSLQAAVPLAPWNLQKNFSGVRVPTFIIGGESDTVAPVATHSEPFYTSLPSTLDKAYMELNNASHFFPNTPNTTMAKYMISWFKRFIDDDTRYDQFLCPNPSGLAIEEYRSTCPY [TEP089] , please.
Data returned: < 3

Data request: Now consider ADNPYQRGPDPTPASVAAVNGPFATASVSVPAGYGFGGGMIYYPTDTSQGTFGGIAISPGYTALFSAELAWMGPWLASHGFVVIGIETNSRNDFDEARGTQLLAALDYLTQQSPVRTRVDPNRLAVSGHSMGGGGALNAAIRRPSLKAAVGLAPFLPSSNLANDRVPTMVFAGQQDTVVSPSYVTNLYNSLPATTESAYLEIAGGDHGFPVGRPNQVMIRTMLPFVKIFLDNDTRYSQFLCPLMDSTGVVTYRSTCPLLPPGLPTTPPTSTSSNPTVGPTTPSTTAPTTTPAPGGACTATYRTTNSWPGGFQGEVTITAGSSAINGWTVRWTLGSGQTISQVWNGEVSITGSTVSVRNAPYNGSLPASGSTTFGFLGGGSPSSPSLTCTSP [TEP165] .
Data returned: 46

Data request: Same question, ATTAAAPAAAVRADSPYQRGPAPTEASVTAARGPFAIAQVTVPAGSGTGFNKGTIYYPTDTGQGTFGGVAVMPGFTSPQSVIQWLGPRLASQGFLVFTLDSLSLVDFPTARSQQLLAALDYLATRSTVRTRLDPNRLAVMGHSMGGGASLWAAQNRPSLKASVPLAPWETDTTWQGVRVPTMIIGGQADTVAPPATMAIPDYTSMTSAPEKAYLELRNGGHGAPATESPTVAKYALSWLKRFVDLDTRYDQFLCPAPAPTTAISQYRDTCPNG [DP058] this time
Data returned: < 3

* * *

measurement_description: melting temperature (DSF); higher = more thermostable
parameter_measured: melting temperature (C)
Please respond with the number in C and leave the unit unwritten.

Data request: Which melting temperature value belongs to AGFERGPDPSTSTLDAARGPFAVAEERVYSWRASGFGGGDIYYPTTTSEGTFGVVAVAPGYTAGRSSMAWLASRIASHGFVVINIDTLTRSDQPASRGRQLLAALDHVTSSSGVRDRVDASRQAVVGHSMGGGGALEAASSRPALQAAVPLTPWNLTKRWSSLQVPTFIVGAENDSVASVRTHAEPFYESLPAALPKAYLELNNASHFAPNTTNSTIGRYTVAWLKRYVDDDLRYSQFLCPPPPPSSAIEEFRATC [DP087] ?
Data returned: 44.2

Data request: Moving on to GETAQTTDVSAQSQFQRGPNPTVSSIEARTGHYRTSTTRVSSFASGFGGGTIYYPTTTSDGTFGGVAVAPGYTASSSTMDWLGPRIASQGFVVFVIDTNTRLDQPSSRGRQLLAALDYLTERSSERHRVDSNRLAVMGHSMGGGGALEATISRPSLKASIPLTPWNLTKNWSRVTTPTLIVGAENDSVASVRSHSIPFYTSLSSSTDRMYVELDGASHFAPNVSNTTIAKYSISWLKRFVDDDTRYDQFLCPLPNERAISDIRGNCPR [DP090]
Data returned: 51.4

Data request: Cool, now ADNPYQRGPDPTQSSVSASRGTFATAQVGVPAGNGFGGGVIYHPTDTSQGTFGAVAIVPGYTATWAAEGAWMGHWLASFGFVVIGIDTNNRNDWDTARGTQLLAALDYLTQRSSVRDRVDPSRTAVMGHSMGGGGAMYAALQRPSLKTAVGLAPFSPSQNLTTTRVPTMLLSGQNDTTTTPASIVNLYNGIPSSVEKAYLELTGAGHGFPTSNNSTMMRNVIPWLKIFVDSDTRYTQFLCPLSDSNGIRTYQNTCPLVPSPVPTTTSTTSSTSTTTTSTTTTTTTSVPVGACSATYRTTNAWSGGYQGEVTVAAGDSAVNGWTVRWTLDSGQTISQVWNGTLSATGSAVSVRNASYNGSLRPGTSTTFGFIAGGAPSTPVLSCTSP [DP072]
Data returned: 58

Data request: Try this sequence too: DEIGQAPTSSNITGNGSFSVSTYNISSLVTGFGGGVAYYPSTAGRYPVVAVSPGFTARWSSISWIGPRLASWGFVVVGIETNSVYDQPASRGSQLLAALNWAVNSAPSAITSRADGSRRGVAGHSMGGGGTLEALAADTTGNVKAGVPLAPWNSDKTWNNVNEPVQIIGGESDTVAGVSSHSIPFYNSLGGSKSYVELNGASHFFPQTTNATTSRALVSWFKRWLNQDARFTPFTCGYGGTAVSDFRTNAC [ESM177]
Data returned: 54.4

Data request: What about this sequence? DEIGQAPTASNITGNGSFATTSASISSTVAGFGGGRVYYPTATGTYPVIAISPGFTATWSSLSWIGPRLSSWGFVVVGIETNSIYDQPGSRGSQLLAALNWAVSSSPTAVRSRVDGSRRGVAGHSMGGGGTLEALAADTSGLVKAGVPLAPWNSDKTWNNVSEPVLIVGGQSDTIAPVSSHSVPFYNTLAGPKTYVELTGASHFFPQSSNATTSRALVSWFKRWLNQDSRFTPFTCGFSGAAVSSFRTNAC [ESM093]
Data returned: 65.2
